# MIC values compiled below
# Test system: Enterococcus faecalis ATCC 29212
# run.description: ≥ marks a high value that may be exact or a test limit, other limits are often not marked, values filed in µg/mL are converted to µM

compound: CC(C)[C@H](NC(=O)[C@H](CCCCN)NC(=O)[C@H](CCC(N)=O)NC(=O)[C@H](CCCCN)NC(=O)[C@@H](NC(=O)[C@@H](NC(=O)[C@H](CCC(N)=O)NC(=O)[C@@H](NC(=O)[C@@H](NC(=O)[C@@H]1CCCN1C(=O)[C@H](CCCN=C(N)N)NC(=O)[C@@H](NC(=O)[C@@H](NC(=O)[C@@H](N)CCCN=C(N)N)C(C)C)C(C)C)C(C)C)C(C)C)C(C)C)C(C)C)C(=O)N[C@@H](CCCN=C(N)N)C(=O)O [RVVRPVVQVVKQKVR]
MIC: 4.47 µM

compound: CC[C@H](C)[C@H](NC(=O)[C@H](CCCN=C(N)N)NC(=O)[C@@H](N)CCCN=C(N)N)C(=O)N[C@@H](CCCN=C(N)N)C(=O)N1CCC[C@H]1C(=O)N[C@@H](CCCN=C(N)N)C(=O)N1CCC[C@H]1C(=O)N1CCC[C@H]1C(=O)N[C@@H](CCCN=C(N)N)C(=O)N[C@@H](CC(C)C)C(=O)N1CCC[C@H]1C(=O)N[C@@H](CCCN=C(N)N)C(=O)N1CCC[C@H]1C(=O)N[C@@H](CCCN=C(N)N)C(=O)N1CCC[C@H]1C(=O)N[C@@H](CCCN=C(N)N)C(=O)O [RRIRPRPPRLPRPRPR]
MIC: > 64 µM

compound: CC[C@H](C)[C@H](NC(=O)[C@H](CCCCN)NC(=O)[C@H](CCCCN)NC(=O)[C@H](CC(C)C)NC(=O)[C@H](CCCN=C(N)N)NC(=O)[C@@H]1CSSC[C@H](NC(=O)[C@H](CCCN=C(N)N)NC(=O)[C@H](CC(C)C)NC(=O)[C@H](CCCN=C(N)N)NC(=O)[C@H](CCCN=C(N)N)NC(=O)[C@H](Cc2ccccc2)NC(=O)[C@@H](N)CCCN=C(N)N)C(=O)N[C@@H](CCCCN)C(=O)N[C@@H]([C@@H](C)O)C(=O)N[C@@H](CCCN=C(N)N)C(=O)N1)C(N)=O [RFRRLRCKTRCRLKKI]
MIC: > 128 µM

compound: C[C@H](NC(=O)[C@H](C)NC(=O)[C@H](Cc1ccccc1)NC(=O)[C@H](C)NC(=O)[C@H](C)NC(=O)[C@H](Cc1c[nH]c2ccccc12)NC(=O)[C@H](C)NC(=O)[C@H](C)NC(=O)[C@H](Cc1ccccc1)NC(=O)[C@H](C)NC(=O)[C@H](C)NC(=O)[C@H](CCCCN)NC(=O)[C@H](CCCCN)NC(=O)[C@H](CCCCN)NC(=O)[C@H](CCCCN)NC(=O)[C@H](CCCCN)NC(=O)[C@@H](N)CCCCN)C(N)=O [KKKKKKAAFAAWAAFAA]
MIC: > 32 µM

----------
# MIC values compiled below
# Test system: Pseudomonas aeruginosa PAO1
# run.description: ≥ marks a high value that may be exact or a test limit, other limits are often not marked, values filed in µg/mL are converted to µM

item.smiles: CC(C)C[C@H](NC(=O)[C@H](CC(C)C)NC(=O)[C@H](CCCCN)NC(=O)CNC(=O)[C@H](CC(C)C)NC(=O)[C@H](CO)NC(=O)[C@H](CO)NC(=O)[C@H](CC(C)C)NC(=O)[C@H](CC(C)C)NC(=O)CN)C(N)=O
MIC: > 25 µM
//
item.smiles: CC(C)C[C@H](NC(=O)[C@H](CC(C)C)NC(=O)[C@@H](N)CCC(=O)O)C(=O)N[C@@H](CO)C(=O)N[C@@H](CCCN=C(N)N)C(=O)N[C@H](C(=O)N[C@@H](CC(=O)O)C(=O)O)C(C)C
MIC: > 154 µM
//
item.smiles: CC[C@H](C)[C@H](NC(=O)CNC(=O)[C@@H](N)CCCCN)C(=O)N[C@@H](CCCN=C(N)N)C(=O)NCC(=O)N[C@@H](Cc1ccc(O)cc1)C(=O)N[C@@H](CCCCN)C(=O)NCC(=O)NCC(=O)N[C@@H](Cc1ccc(O)cc1)C(=O)N[C@@H](CCCCN)C(=O)NCC(=O)N[C@@H](C)C(=O)N[C@@H](Cc1ccccc1)C(=O)N[C@@H](CCCCN)C(=O)N[C@@H](CCC(N)=O)C(=O)N[C@H](C(=O)N[C@@H](CCCCN)C(=O)N[C@@H](Cc1ccc(O)cc1)C(=O)O)[C@@H](C)O
MIC: > 59.5 µM
//
item.smiles: CC[C@H](C)[C@H](NC(=O)[C@H](CCCCN)NC(=O)[C@H](CCC(N)=O)NC(=O)[C@H](CC(C)C)NC(=O)[C@@H](N)Cc1ccccc1)C(=O)N[C@H](C(=O)NCC(=O)N[C@@H](C)C(=O)N[C@@H](CC(C)C)C(=O)NCC(=O)N[C@@H](Cc1cnc[nH]1)C(=O)N[C@@H](CC(C)C)C(=O)N[C@@H](Cc1ccccc1)C(N)=O)[C@@H](C)CC
MIC: > 100 µM
//
item.smiles: CC[C@H](C)[C@H](NC(=O)[C@@H]1CCCN1C(=O)[C@H](CC(C)C)NC(=O)[C@H](CC(C)C)NC(=O)[C@H](CCCCN)NC(=O)[C@@H](N)CCCCN)C(=O)N[C@H](C(=O)N[C@@H](C)C(=O)N[C@@H](CC(N)=O)C(=O)N[C@@H](CC(C)C)C(=O)N[C@@H](CC(C)C)C(=O)N[C@@H](CCCCN)C(=O)N[C@@H](CO)C(=O)N[C@@H](CC(C)C)C(=O)N[C@@H](CC(C)C)C(N)=O)C(C)C
MIC: > 77 µM
//
item.smiles: CC(C)C[C@H](NC(=O)[C@H](CC(C)C)NC(=O)[C@H](CCCCN)NC(=O)CNC(=O)[C@H](CC(C)C)NC(=O)[C@H](CO)NC(=O)[C@H](CO)NC(=O)[C@H](CC(C)C)NC(=O)CN)C(N)=O
MIC: > 25 µM
//
item.smiles: CC(C)C[C@H](NC(=O)[C@H](CC(C)C)NC(=O)[C@H](CCCCN)NC(=O)[C@H](CC(C)C)NC(=O)[C@H](CCCCN)NC(=O)[C@H](CC(C)C)NC(=O)[C@H](CO)NC(=O)[C@H](CC(C)C)NC(=O)[C@H](CC(C)C)NC(=O)[C@H](CC(C)C)NC(=O)[C@H](CO)NC(=O)[C@H](CC(C)C)NC(=O)CN)C(N)=O
MIC: > 25 µM

----------
Let's go through some recorded MIC values for Staphylococcus epidermidis together.

compound: CC[C@H](C)[C@H](N=C(O)[C@H](C)N=C(O)[C@H](C)N=C(O)[C@@H](N=C(O)[C@@H](N=C(O)[C@H](Cc1cnc[nH]1)N=C(O)[C@H](C)N=C(O)[C@H](C)N=C(O)[C@@H](N=C(O)[C@H](CCCCN)N=C(O)[C@H](C)N=C(O)[C@H](CC(C)C)N=C(O)[C@@H](N=C(O)CN=C(O)[C@H](Cc1ccccc1)N=C(O)[C@H](CC(C)C)N=C(O)CN)C(C)C)C(C)C)C(C)C)C(C)C)C(O)=N[C@@H](C)C(O)=N[C@@H](CCC(=O)O)C(O)=N[C@@H](Cc1cnc[nH]1)C(O)=N[C@@H](Cc1ccccc1)C(=N)O [GLFGVLAKVAAHVVAAIAEHF]
MIC: ≥ 47.2 µM
--
compound: CC[C@H](C)[C@H](NC(=O)[C@H](CCCCN)NC(=O)[C@H](CCC(N)=O)NC(=O)[C@H](Cc1c[nH]c2ccccc12)NC(=O)[C@@H](NC(=O)[C@H](CCCCN)NC(=O)[C@@H](N)CCCCN)[C@@H](C)CC)C(=O)N[C@@H](CCCN=C(N)N)C(=O)N[C@@H](CC(N)=O)C(=O)N[C@@H](Cc1ccccc1)C(=O)N[C@@H](Cc1ccccc1)C(=O)N[C@@H](CCC(N)=O)C(=O)N[C@@H](CCCCN)C(=O)N[C@@H](CC(C)C)C(=O)O [KKIWQKIRNFFQKL]
MIC: ≥ 50 µM
--
compound: CC[C@H](C)[C@H](NC(=O)CNC(=O)[C@H](CCSC)NC(=O)[C@H](CC(C)C)NC(=O)[C@H](CCCCN)NC(=O)[C@@H](N)CC(C)C)C(=O)N[C@H](C(=O)N[C@@H](CCCCN)C(=O)N[C@@H](CCCCN)C(=O)N[C@H](C(=O)N[C@@H](CC(C)C)C(=O)NCC(=O)N[C@@H](C)C(=O)N[C@@H](CC(C)C)C(N)=O)C(C)C)C(C)C [LKLMGIVKKVLGAL]
MIC: ≥ 34 µM
--
compound: CC(C)C[C@H](NC(=O)[C@H](CCCN=C(N)N)NC(=O)[C@@H]1CCCN1C(=O)[C@H](Cc1cnc[nH]1)NC(=O)[C@@H]1CCCN1C(=O)[C@@H]1CCCN1C(=O)[C@H](CCCN=C(N)N)NC(=O)[C@@H]1CCCN1C(=O)[C@@H](N)CCC(N)=O)C(=O)O [QPRPPHPRL]
MIC: ≥ 64 µM

The measurements presented in this section are drawn from DBAASP.
